# target or system: Serine/threonine-protein kinase PLK1 (Homo sapiens)
# Sequence (P53350 whole entry): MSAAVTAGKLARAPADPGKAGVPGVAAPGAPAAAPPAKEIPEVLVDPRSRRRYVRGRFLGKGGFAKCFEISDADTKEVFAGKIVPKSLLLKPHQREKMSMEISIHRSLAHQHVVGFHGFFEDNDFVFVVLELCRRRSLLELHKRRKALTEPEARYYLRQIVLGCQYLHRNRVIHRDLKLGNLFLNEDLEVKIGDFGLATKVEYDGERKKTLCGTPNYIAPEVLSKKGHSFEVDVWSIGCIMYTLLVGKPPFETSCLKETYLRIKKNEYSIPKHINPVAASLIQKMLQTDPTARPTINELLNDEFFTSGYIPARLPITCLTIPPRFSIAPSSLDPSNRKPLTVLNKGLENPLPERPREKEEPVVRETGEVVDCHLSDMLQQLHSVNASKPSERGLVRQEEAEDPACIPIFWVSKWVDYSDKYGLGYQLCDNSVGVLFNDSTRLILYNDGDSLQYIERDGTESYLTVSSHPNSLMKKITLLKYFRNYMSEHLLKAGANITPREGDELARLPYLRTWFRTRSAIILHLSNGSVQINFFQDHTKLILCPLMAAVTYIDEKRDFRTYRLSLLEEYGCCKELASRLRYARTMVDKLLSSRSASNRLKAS
# protocol summary: Inhibition of PLK-1 (unknown origin)

{"columns": ["compound smiles", "IC50"],
 "data": [
  ["COc1ccc2c(c1)[C@]1(C[C@H]1c1ccc3c(/C=C/c4ccc(CN5C[C@@H](C)O[C@@H](C)C5)cc4)n[nH]c3c1)C(=O)N2", "> 50 µM"]
]}

* * *

# target or system: Fibroblast growth factor receptor 1 (Homo sapiens, UniProt P11362)
# Sequence (P11362 whole entry): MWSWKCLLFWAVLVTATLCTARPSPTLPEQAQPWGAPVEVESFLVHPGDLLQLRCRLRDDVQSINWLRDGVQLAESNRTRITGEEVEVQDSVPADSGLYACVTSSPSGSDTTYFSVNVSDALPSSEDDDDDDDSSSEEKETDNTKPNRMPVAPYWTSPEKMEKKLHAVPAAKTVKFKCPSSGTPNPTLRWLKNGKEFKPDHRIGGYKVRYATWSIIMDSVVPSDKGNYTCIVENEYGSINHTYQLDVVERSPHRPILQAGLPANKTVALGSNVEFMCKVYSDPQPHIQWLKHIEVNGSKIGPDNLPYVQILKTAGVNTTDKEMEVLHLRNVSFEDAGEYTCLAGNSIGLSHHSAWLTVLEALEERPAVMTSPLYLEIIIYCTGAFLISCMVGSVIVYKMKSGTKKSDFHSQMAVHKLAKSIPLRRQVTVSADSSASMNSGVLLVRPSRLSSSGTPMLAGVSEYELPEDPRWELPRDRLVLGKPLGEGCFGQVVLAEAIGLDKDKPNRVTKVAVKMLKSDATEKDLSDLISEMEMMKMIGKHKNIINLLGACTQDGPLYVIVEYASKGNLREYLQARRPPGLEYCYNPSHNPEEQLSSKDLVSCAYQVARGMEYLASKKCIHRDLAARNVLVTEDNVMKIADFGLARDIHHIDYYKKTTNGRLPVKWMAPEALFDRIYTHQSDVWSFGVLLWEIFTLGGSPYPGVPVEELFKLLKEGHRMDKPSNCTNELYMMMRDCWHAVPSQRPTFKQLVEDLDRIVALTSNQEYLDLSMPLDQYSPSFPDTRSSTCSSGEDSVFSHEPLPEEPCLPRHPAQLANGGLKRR
# protocol summary: Inhibition of FGFR1 (unknown origin)
value type: EC50 (nM)

{"columns": ["compound smiles", "reported result"],
 "data": [
  ["COc1ccc2c(c1)[C@]1(C[C@H]1c1ccc3c(/C=C/c4ccc(CN5C[C@@H](C)O[C@@H](C)C5)cc4)n[nH]c3c1)C(=O)N2", 1100]
]}

* * *

# protocol summary: Inhibition of SLC34A2/ROS (unknown origin)
# Design: species or system Homo sapiens
pEC50: −log10 of the molar value.

{"columns": ["compound smiles", "pEC50"],
 "data": [
  ["COc1ccc2c(c1)[C@]1(C[C@H]1c1ccc3c(/C=C/c4ccc(CN5C[C@@H](C)O[C@@H](C)C5)cc4)n[nH]c3c1)C(=O)N2", 6.33]
]}
